molecular target: HLA-B*07:02; experiment: IEDB peptide-MHC binding, purified MHC/direct/fluorescence; filed as Kd, often an IC50 or EC50 that approximates it; bounds were set here for any values at or beyond the usual limits of such assays; details: source organism: Mycobacterium tuberculosis
quantity measured: pKd
Just the number, please; pKd means minus log10 of the concentration in mol/L.

response.value for MIRAQAGSL (field: pKd) = 7.47

* * *

molecular target: HLA-A*69:01; experiment: IEDB peptide-MHC binding, purified MHC/direct/fluorescence; filed as Kd, often an IC50 or EC50 that approximates it; bounds were set here for any values at or beyond the usual limits of such assays; settings: source organism: Entamoeba histolytica HM-1:IMSS
pKd: −log10 of the molar value.
quantity measured: pKd

pKd value, target or system HLA-A*69:01, for KLYDSVYLT : ≤ 4.70

* * *

biological target: HLA-B*57:01; assay: IEDB peptide-MHC binding, purified MHC/competitive/fluorescence; filed as Kd, often an IC50 or EC50 that approximates it; bounds were set here for any values at or beyond the usual limits of such assays; settings: source organism: Rickettsia akari str. Hartford
quantity measured: Kd

Record FTARIIIFS . Reported Kd: ≥ 20 µM

* * *

target: HLA-A*01:01; assay: IEDB peptide-MHC binding, purified MHC/competitive/radioactivity; filed as Kd, often an IC50 or EC50 that approximates it; bounds were set here for any values at or beyond the usual limits of such assays; conditions: source organism: Dengue virus 4 Philippines/H241/1956
Reported pKd values for the following sequences.
Would you please state pKd, meaning minus log10 of the concentration in mol/L, as a bare number?

Study these solved cases before continuing.
sequence	tested system	pKd
VIDLEPISY	HLA-A*01:01	7.29
FLEFEALGFL	HLA-A*01:01	5.49
ISSTPFAEY	HLA-A*01:01	5.72

Now look at this one.
Record MSYTMCSGKF . Reported pKd: 5.11

* * *

target: HLA-A*29:02; assay: IEDB peptide-MHC binding, purified MHC/competitive/fluorescence; filed as Kd, often an IC50 or EC50 that approximates it; bounds were set here for any values at or beyond the usual limits of such assays; details: source organism: Plesiomonas shigelloides
quantity measured: Kd (nM)
Give just the numeric value; nM need not be written.

For record LLFRMILNY the listed Kd is 5

* * *

target: HLA-A*02:01; test: IEDB peptide-MHC binding, purified MHC/competitive/radioactivity; filed as Kd, often an IC50 or EC50 that approximates it; bounds were set here for any values at or beyond the usual limits of such assays; conditions: source organism: Lassa virus Josiah
quantity measured: Kd (µM)
Quick note: give the figure in µM, leave out the unit.

Readout Kd for TLTSDDLLI , test system HLA-A*02:01, was 4.17

* * *

molecular target: HLA-B*46:01; assay: IEDB peptide-MHC binding, purified MHC/direct/fluorescence; filed as Kd, often an IC50 or EC50 that approximates it; bounds were set here for any values at or beyond the usual limits of such assays; settings: source organism: Vibrio cholerae
quantity measured: Kd

Kd reported for this sequence EVNAHIHTM : ≥ 20 µM

* * *

target: HLA-A*24:03; assay: IEDB peptide-MHC binding, purified MHC/competitive/fluorescence; filed as Kd, often an IC50 or EC50 that approximates it; bounds were set here for any values at or beyond the usual limits of such assays; conditions: source organism: Salmonella enterica subsp. enterica serovar Typhi
quantity measured: Kd

# Kd (sequence: NTDEIPELI ) is ≥ 20 µM

* * *

target: HLA-A*03:01; assay: IEDB peptide-MHC binding, purified MHC/competitive/fluorescence; filed as Kd, often an IC50 or EC50 that approximates it; bounds were set here for any values at or beyond the usual limits of such assays; conditions: source organism: Vibrio cholerae MO10
quantity measured: Kd

# Kd (sequence: EVNAHIHTM ) is ≥ 20 µM

* * *

target: HLA-C*06:02; experiment: IEDB peptide-MHC binding, purified MHC/direct/fluorescence; filed as Kd, often an IC50 or EC50 that approximates it; bounds were set here for any values at or beyond the usual limits of such assays; conditions: source organism: Mus musculus
quantity measured: Kd (nM)
Please state the figure in nM; there is no need to write the unit.

GET /value?item= IRHNKDRKV &field=Kd returns 26

* * *

molecular target: HLA-B*39:01; test: IEDB peptide-MHC binding, purified MHC/competitive/fluorescence; filed as Kd, often an IC50 or EC50 that approximates it; bounds were set here for any values at or beyond the usual limits of such assays; conditions: source organism: Cryptosporidium parvum Iowa II
quantity measured: Kd

What the record says about FTWQHNYYL : Kd is ≥ 20 µM

* * *

target: HLA-A*02:01; experiment: IEDB peptide-MHC binding, purified MHC/competitive/fluorescence; filed as Kd, often an IC50 or EC50 that approximates it; bounds were set here for any values at or beyond the usual limits of such assays; conditions: source organism: Homo sapiens
quantity measured: Kd (µM)
Numbers only; they are read as µM.

The sequence listed as VVPYEPPEV shows Kd equal to 0.0265

* * *

molecular target: HLA-A*02:02; assay: IEDB peptide-MHC binding, purified MHC/competitive/radioactivity; filed as Kd, often an IC50 or EC50 that approximates it; bounds were set here for any values at or beyond the usual limits of such assays; conditions: source organism: SARS coronavirus Tor2
Reported Kd values for a set of sequences
Reply with just the number (in nM).

Examples with their reported Kd follow.
sequence	units	measured value
SQMETDFLEL	nM	227
LMSFTILCLV	nM	0.338
FLAFVVFLL	nM	0.411
FLLVTLAIL	nM	0.645
LVIGFLFLA	nM	7.38
FICNLLLLFV	nM	2.47
LMANLAPHLL	nM	0.228

We now examine a further sequence.
Record YIFFASFYYI . Reported Kd: 0.46

* * *

target: HLA-A*02:11; assay: IEDB peptide-MHC binding, purified MHC/direct/fluorescence; filed as Kd, often an IC50 or EC50 that approximates it; bounds were set here for any values at or beyond the usual limits of such assays; conditions: source organism: Zaire ebolavirus
pKd: −log10 of the molar value.
quantity measured: pKd

Completed entries (count: 2):
sequence	pKd
QTEPKTSVV	≤ 4.70
NYNGLLSSI	≤ 4.70

From here, focus on the item given below.
For this sequence ( QFLSFASLF ), measured pKd is ≤ 4.70

* * *

biological target: HLA-B*40:01; test: IEDB peptide-MHC binding, purified MHC/direct/fluorescence; filed as Kd, often an IC50 or EC50 that approximates it; bounds were set here for any values at or beyond the usual limits of such assays; conditions: source organism: West Nile virus
pKd: −log10 of the molar value.
quantity measured: pKd

// HSRRSRRSL : pKd value = ≤ 4.70

* * *

target: HLA-A*11:01; assay: IEDB peptide-MHC binding, purified MHC/competitive/radioactivity; filed as Kd, often an IC50 or EC50 that approximates it; bounds were set here for any values at or beyond the usual limits of such assays; conditions: source organism: Vaccinia virus WR
quantity measured: Kd
Value and unit, in that order.

sequence	measured value
EIKQGRVNK	517 nM

The reported Kd of the sequence VSLKKTNDK was 32.1 nM

Lab note: measured Kd of IFMRDWNSK was 8210 nM

Recorded result, KFGNSINVK , Kd: 6460 nM

According to the records, this sequence DMFLTSVINR displays Kd of 2420 nM

// field: Kd; key: MFEQYFIYTY ; value = 2140 nM

* * *

biological target: HLA-B*46:01; experiment: IEDB peptide-MHC binding, purified MHC/direct/fluorescence; filed as Kd, often an IC50 or EC50 that approximates it; bounds were set here for any values at or beyond the usual limits of such assays; settings: source organism: Vibrio vulnificus
quantity measured: Kd

Measured Kd, QSDIAGAIH : ≥ 20 µM

* * *

biological target: HLA-A*11:01; test: IEDB peptide-MHC binding, purified MHC/competitive/radioactivity; filed as Kd, often an IC50 or EC50 that approximates it; bounds were set here for any values at or beyond the usual limits of such assays; details: source organism: Mammarenavirus juninense
pKd: −log10 of the molar value.
quantity measured: pKd

// sample PLLCTLNKSH , its pKd was ≤ 4.16

pKd in this record for PAAEFRRVAH : ≤ 4.16

The measured pKd associated with MTSWLDFSH reads 6.94

* * *

target: HLA-A*31:01; assay: IEDB peptide-MHC binding, purified MHC/competitive/fluorescence; filed as Kd, often an IC50 or EC50 that approximates it; bounds were set here for any values at or beyond the usual limits of such assays; details: source organism: Influenza A virus (A/swine/Italy/1509-6/97(H1N1))
quantity measured: pKd
// pKd here means minus log10 of the molar concentration (mol/L)

For reference, reported pKd for GINDRNFWR stands at 8.50

* * *

target: HLA-A*30:02; assay: IEDB peptide-MHC binding, purified MHC/competitive/radioactivity; filed as Kd, often an IC50 or EC50 that approximates it; bounds were set here for any values at or beyond the usual limits of such assays; conditions: source organism: Mammarenavirus machupoense
quantity measured: Kd (nM)
# output: bare number, implied unit nM

sequence CGDPSSFEY , Kd observed: 421
